These data points were gathered from PubChem BioAssay.

- System: TRPC4 (mouse), co-expressed with 5HT1a in HEK293
- assay.comment: calcium flux potentiators in TRPC4/5HT1a cells, confirmation, counter-screen for TRPC4 potentiator project, cell-based, second counter screen, HEK293 TRPC4/5HT1a, Fluo-4 (AID 434979)
- assay.setup: Fluo-4 calcium flux, at 10 µM, serotonin added at its EC20 dose
The source made the active and inactive calls.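 The calls were made as follows: active = signal rise over 3 SD above mean of control wells given weak agonist, in both repeats and first screen; inactive = the rest.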
Give one outcome, nothing more. List: active, inactive

Could you check what this test reported for COc1ccc(C(CCNCc2ccc(N(C)C)cc2)c2ccccc2OC)cc1 (centres undefined) ?
inactive

Could you check what this test reported for COc1ccc(C(=O)NC(=S)NNC(=O)c2c(-c3ccccc3)noc2C)cc1 ?
inactive

Could you check what this test reported for O=C(CNS(=O)(=O)c1ccc2ccccc2c1)NCCc1ccccn1 ?
inactive

Could you check what this test reported for CN(C)c1ccc(NC(=S)N2CCN(c3ncc(C(F)(F)F)cc3Cl)CC2)cc1 ?
inactive

Could you check what this test reported for O=C(NNC(=S)NC(=O)C12CC3CC(CC(C3)C1)C2)c1ccncc1 ?
inactive

Could you check what this test reported for Cc1sc2ncnc(NCC(C)(C)N3CCOCC3)c2c1C ?
inactive

Could you check what this test reported for CC1(c2ccc(Cl)cc2Cl)OCC(Cn2ccnc2)O1 (centres undefined) ?
inactive

Could you check what this test reported for CCOC(=O)C1(CCOc2ccccc2)CCN(Cc2ccc(OC)c(O)c2)CC1 ?
inactive

Could you check what this test reported for CN(C)C(CNC(C(=O)Nc1ccc(F)cc1)c1ccccc1)c1ccccc1 (centres undefined) ?
inactive

Could you check what this test reported for COC(=O)C1=NN(C(=O)c2cccc(Br)c2)C(O)(c2ccc(Cl)cc2)C1 (centres undefined) ?
inactive

Could you check what this test reported for O=C(Nc1nnc(-c2cccs2)o1)c1cccc(C(F)(F)F)c1 ?
inactive

Could you check what this test reported for CC(C)(C)c1cc(CCC(=O)NNC(=S)NC(=O)c2ccccc2)cc(C(C)(C)C)c1O ?
inactive

Could you check what this test reported for CCCCN(CC)CCCNC(=O)Cn1nc(Cc2ccncc2)c2ccccc2c1=O ?
inactive

Could you check what this test reported for Cc1cc(Br)ccc1OCCn1ccnc1 ?
inactive

Could you check what this test reported for COc1ccc(-c2cc(C(=O)NCC(c3ccccc3)N(C)C)c3ccccc3n2)cc1OC (centres undefined) ?
inactive

Could you check what this test reported for CN(CCc1nc2ccc(Cl)cc2[nH]1)Cc1nc(CC2CC2)no1 ?
inactive

Could you check what this test reported for Cc1ccc(C2N(c3ccc(Cl)c(Cl)c3)C(=O)C3CCCN32)o1 (centres undefined) ?
active

Could you check what this test reported for Cc1ccc(C)c(OCCCCCn2ccnc2)c1 ?
inactive

Could you check what this test reported for Cc1ccc(N2CCN(c3ccc(NCc4nc5ccccc5n4C)cc3)CC2)cc1 ?
inactive

Could you check what this test reported for COc1ccc(/C=C/CN2CCCC(C(=O)c3ccc(OC)c(F)c3)C2)cc1 (centres undefined) ?
inactive

Could you check what this test reported for Cc1cc(NC(=O)CN2CCc3ccccc3C2)nc2c1c(=O)oc1ccccc12 ?
inactive

Could you check what this test reported for CN(C)C(CNC(=O)c1ccc2c(c1)S(=O)(=O)c1ccccc1C2=O)c1ccco1 (centres undefined) ?
inactive

Could you check what this test reported for CCOC(=O)c1c(NC(=O)COC(=O)Cc2c[nH]c3ccccc23)sc(C(=O)N(C)C)c1C ?
active

Could you check what this test reported for O=C(c1c(F)cccc1F)N1CCN(c2ncc(Br)cn2)CC1 ?
inactive

Could you check what this test reported for NC(=O)C1CCCN(CC(O)COCc2ccc(Cl)cc2)C1 (centres undefined) ?
inactive

Could you check what this test reported for O=c1c2c(-c3ccccc3)csc2ncn1/N=C/c1cccc([N+](=O)[O-])c1O ?
inactive

Could you check what this test reported for CN(C)C(CNC(=S)Nc1ccccc1)c1cccnc1 (centres undefined) ?
inactive

Could you check what this test reported for CN(C)CCCN(C(=O)c1ccc(S(=O)(=O)N2CCOCC2)cc1)c1nc2ccc(F)cc2s1 ?
inactive

Could you check what this test reported for CCN1C(=O)c2cccc3c(S(=O)(=O)Nc4ccccc4OC)ccc1c23 ?
inactive
